# assay-comment: CEETOX_H295R_CORTISOL: CeeTox H295R High-throughput Steroidogenesis Assay for Cortisol (AID 2283438);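 also: cortisol secreted into medium quantified by LC-MS/MS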
# test-settings: actives raise or lower the signal
The source made the active and inactive calls. The calls were made as follows: active = hit-call score of the fitted dose curve at least 0.9, where 1 is the maximum; inactive = score below 0.9.
Pick one: 1 for active, -1 for inactive

For OC1CCC(C2CCCCC2)CC1 (stereo not given) , what call appears in the results of this test? -1

How about this compound: COC(=O)CCCCC(=O)OC -1

Also need O=C(O)c1ccccc1C(c1ccc(O)cc1)c1ccc(O)cc1 , thanks. -1

Queued: C[C@@H]1C[C@H]2[C@@H]3CCC4=CC(=O)C=C[C@]4(C)[C@@]3(F)[C@@H](O)C[C@]2(C)[C@@]1(O)C(=O)COP(=O)(O)O -1

Entry to check: O=c1c(-c2ccc(O)cc2)coc2cc(O)ccc12 1

====

# Tested on: IYD (gene 389434)
# assay-comment: CCTE_GLTED_hIYD: CCTE's human Iodotyrosine Deiodinase (xIYD) Inhibition Assay, Great Lakes Toxicology and Ecology Division (GLTED) Lab (AID 2284317);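 also: cell-free human IYD enzyme made in baculovirus insect cells; iodide freed from monoiodotyrosine measured by cerium arsenite color change at 420 nm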
Activity calls are given as the source filed them. How the source made its calls: active means hit-call score of the fitted dose curve at least 0.9, where 1 is the maximum; inconclusive means response in the unintended direction; inactive means score below 0.9.
Your answer must be one of the following: yes (1) (active), no (0) (inactive)

Answer briefly: the call reported for CCC(=C(c1ccc(O)cc1)c1ccc(OCCN(C)C)cc1)c1ccccc1 in this assay. no (0)

Moving on to the next compound: CCCCCCCCCCCCCC[N+](C)(C)C yes (1)

Param item: O=C1OC2(c3ccccc31)c1cc(Br)c(O)c(Br)c1Oc1c2cc(Br)c(O)c1Br yes (1)

Also CCCCCCCCCCCCc1ccccc1S(=O)(=O)O ? yes (1)

And for CC(C)(C)c1cccc(C(C)(C)C)c1O ? yes (1)

====

# Test system: TTR (gene 7276)
# assay-comment: CCTE_GLTED_hTTR_0.125uM: CCTE's human Transthyretin (hTTR) Inhibition Assay, with 0.125uM TTR, Great Lakes Toxicology and Ecology Division (GLTED) Lab (AID 2284431);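 also: hits lower the fluorescence signal relative to DMSO baseline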
Calls of active or inactive are those of the source. Rule for the calls: active = hit-call score of the fitted dose curve at least 0.9, where 1 is the maximum; inactive = score below 0.9.
parameter: AC50

// lookup AC50 | system=TTR (gene 7276) | key= O=C(O)c1ccccc1C(c1ccc(O)cc1)c1ccc(O)cc1 3.04 µM (active)

Next entry: O=C(O)Cc1cc(I)c(Oc2cc(I)c(O)c(I)c2)c(I)c1 0.0104 µM (active)

Same again, this time with CC(C)(C)c1ccc(O)c(C(C)(C)C)c1 9.98 µM (active)

Proceed to ClC1=C(Cl)C(Cl)(Cl)C(Cl)=C1Cl 7.09 µM (active)

What would you report for CCc1ccc(CCOc2ccc(CC3SC(=O)NC3=O)cc2)nc1 (configuration not stated) ? 0.392 µM (active)

For CC[C@H](c1ccc(O)cc1)[C@@H](CC)c1ccc(O)cc1 then? 0.132 µM (active)

Another compound to look at: CCCCCCCCC(=O)O 12.4 µM (active)

====

# Read-out: DNA damage-inducible transcript 3 (DDIT3), DDIT3 (gene 1649)
# assay-comment: LTEA_HepaRG_DDIT3: Life Technologies and Expression Analysis (LTEA) Assay for DNA damage-inducible transcript 3 (DDIT3) using HepaRG (AID 2283488)
# test-settings: mRNA level, 48 h; actives raise or lower the signal
Active and inactive are the calls of the source. How the source made its calls: active means hit-call score of the fitted dose curve at least 0.9, where 1 is the maximum; inactive means score below 0.9.
Pick from class 1 (active), class 0 (inactive) when you respond.

Which outcome was assigned to CCCCCCCCCCCCc1ccccc1S(=O)(=O)O in this test? class 1

Now the compound OCCC(F)(F)C(F)(F)C(F)(F)C(F)(F)C(F)(F)C(F)(F)C(F)(F)C(F)(F)F class 0

Moving on to Cc1cc(C)c(O)c(C)c1 class 0

CC(C)(C)c1cccc(C(C)(C)C)c1O , same question. class 1

Then what about the compound CC(=O)CC(C)(C)O ? class 0

Continue with CCOC(=O)CC(O)(CC(=O)OCC)C(=O)OCC class 0

Also check CCCCC(CC)COC(=O)CCCCC(=O)OCC(CC)CCCC (configuration not stated) class 0

Where do these numbers come from? They come from PubChem BioAssay (EPA / NIEHS).
